target: hNET (Homo sapiens (Human), UniProt P23975); test: NET radioligand binding assay ([3H]nisoxetine, HEK-293 membranes); conditions: recombinant HEK-293 membranes, [3H]nisoxetine; read-out: Binding Affinity (IC50, nM) NET
Sequence (P23975 whole entry): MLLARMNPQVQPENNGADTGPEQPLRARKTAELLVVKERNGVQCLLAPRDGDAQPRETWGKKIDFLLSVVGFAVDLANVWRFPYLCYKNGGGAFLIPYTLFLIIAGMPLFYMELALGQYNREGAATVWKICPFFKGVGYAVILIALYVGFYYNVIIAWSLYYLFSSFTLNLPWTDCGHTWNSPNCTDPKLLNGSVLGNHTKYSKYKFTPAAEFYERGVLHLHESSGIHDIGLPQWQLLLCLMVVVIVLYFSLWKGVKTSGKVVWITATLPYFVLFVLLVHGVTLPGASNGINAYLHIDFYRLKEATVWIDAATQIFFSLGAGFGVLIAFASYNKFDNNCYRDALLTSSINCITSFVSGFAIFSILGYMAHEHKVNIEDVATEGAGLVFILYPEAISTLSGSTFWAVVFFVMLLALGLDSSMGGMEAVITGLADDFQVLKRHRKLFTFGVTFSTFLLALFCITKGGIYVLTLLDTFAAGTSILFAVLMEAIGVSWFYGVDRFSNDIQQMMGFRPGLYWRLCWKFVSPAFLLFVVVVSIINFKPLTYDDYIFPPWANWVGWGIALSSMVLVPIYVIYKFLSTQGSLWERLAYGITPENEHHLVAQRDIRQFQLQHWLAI
measuredAttribute: IC50
I'd appreciate it if you included the unit after the number.

Below, each entry is followed by its recorded IC50 result.
Oc1ccc(-c2ccc3c(c2)CN2CCC3(c3ccc(Cl)cc3)C2)nn1 (single isomer, unassigned) [7(−)]    103 nM
Cc1nnc(-c2ccc3c(c2)CN2CCC3(c3ccc(Cl)cc3)CC2)s1 [Example 25]    392 nM

Moving on to another compound below.
query: Fill blank: measured IC50 of the compound FC(F)(F)c1ccc(C23CCN(CC2)Cc2cc(Oc4ccc(C(F)(F)F)nn4)ccc23)cc1 [Example 50] is ____.
result: 1050 nM

---

Record form. Attribute: IC50. Fill in for each entry.
Molecular target: hDAT (Homo sapiens (Human))
Assay: DAT radioligand binding assay ([125I]RTI-55, HEK-293 membranes)
Settings: recombinant HEK-293 membranes, [125I]RTI-55; read-out: Binding Affinity (IC50, nM) DAT
Procedure: Recombinant HEK-293 cells expressing either the hSERT, hDAT, or hNET proteins were harvested from T-175 flasks as follows. The medium was removed from the flasks and the cells rinsed with HBSS without Ca and without Mg. The cells were then incubated for 5-10 minutes in 10 mM Tris-Cl, pH 7.5, 5 mM EDTA before the cells were lifted with a combination of pipetting and scraping, as needed. […]
I'd appreciate it if you included the unit after the number.

Below, each entry is followed by its recorded IC50 result.
Nc1cnc(-c2ccc3c(c2)CN2CCC3(c3ccc(Cl)c(Cl)c3)CC2)cn1    9.2 nM
Fc1ccc(C23CCN(Cc4cc(-c5ccc6ncnn6c5)ccc42)C3)cc1Cl (single isomer, unassigned) [55(+)]    121 nM
Clc1ccc(C23CCN(Cc4cc(-c5ccc6ncnn6c5)ccc42)C3)cc1 (single isomer, unassigned) [3(−)]    141 nM
Fc1ccc(C23CCN(CC2)Cc2cc(-c4ccc5ncnn5c4)ccc23)cc1Cl    78 nM
Clc1ccc(C23CCN(CC2)Cc2cc(-c4cnc5ccccc5n4)ccc23)cc1    353 nM
Clc1ccc(C23CCN(CC2)Cc2cc(OCCCc4ccncc4)ccc23)cc1    205 nM

Give measured IC50 for every item shown.
1. Cc1nnc2ccc(-c3ccc4c(c3)CN3CCC4(c4ccc(Cl)cc4)CC3)cn12
2. Fc1ccc(C23CCN(CC2)Cc2cc(Oc4ccc(C(F)(F)F)nn4)ccc23)cc1
3. FC(F)(F)c1ccc(C23CCN(CC2)Cc2cc(Oc4ccc(C(F)(F)F)nn4)ccc23)cc1
4. Clc1ccc(C23CCN(Cc4cc(-c5ccc6ncnn6c5)ccc42)C3)cc1Cl (single isomer, unassigned) [10(−)]
5. Clc1ccc(C23CCN(Cc4cc(-c5ccc6ncnn6c5)ccc42)C3)cc1Cl (single isomer, unassigned) [10(+)]

result:
1: 220 nM; 2: 42.8 nM; 3: 614 nM; 4: 37.5 nM; 5: 49.5 nM

Give measured IC50 for every item shown.
1. FC(F)Oc1ccc(-c2ccc3c(c2)CN2CCC3(c3ccc(Cl)cc3)C2)nn1 (single isomer, unassigned) [6(+)]
2. Clc1ccc(C23CCN(Cc4cc(-c5ccc6ncnn6c5)ccc42)C3)cc1 (single isomer, unassigned) [3(+)]
3. Oc1ccc(-c2ccc3c(c2)CN2CCC3(c3ccc(Cl)c(Cl)c3)CC2)nn1
4. CS(=O)(=O)c1ccc(-c2ccc3c(c2)CN2CCC3(c3ccc(Cl)cc3)CC2)cc1
5. Oc1ccc2c(c1)CN1CCC2(c2ccc(Cl)cc2)CC1

result:
1: 1060 nM; 2: 340 nM; 3: 5.1 nM; 4: 63 nM; 5: 21.1 nM

---

biological target: hDAT (Homo sapiens (Human), UniProt Q01959); experiment: DAT radioligand binding assay ([125I]RTI-55, HEK-293 membranes); settings: recombinant HEK-293 membranes, [125I]RTI-55; read-out: Binding Affinity (IC50, nM) DAT
Sequence (Q01959 whole entry): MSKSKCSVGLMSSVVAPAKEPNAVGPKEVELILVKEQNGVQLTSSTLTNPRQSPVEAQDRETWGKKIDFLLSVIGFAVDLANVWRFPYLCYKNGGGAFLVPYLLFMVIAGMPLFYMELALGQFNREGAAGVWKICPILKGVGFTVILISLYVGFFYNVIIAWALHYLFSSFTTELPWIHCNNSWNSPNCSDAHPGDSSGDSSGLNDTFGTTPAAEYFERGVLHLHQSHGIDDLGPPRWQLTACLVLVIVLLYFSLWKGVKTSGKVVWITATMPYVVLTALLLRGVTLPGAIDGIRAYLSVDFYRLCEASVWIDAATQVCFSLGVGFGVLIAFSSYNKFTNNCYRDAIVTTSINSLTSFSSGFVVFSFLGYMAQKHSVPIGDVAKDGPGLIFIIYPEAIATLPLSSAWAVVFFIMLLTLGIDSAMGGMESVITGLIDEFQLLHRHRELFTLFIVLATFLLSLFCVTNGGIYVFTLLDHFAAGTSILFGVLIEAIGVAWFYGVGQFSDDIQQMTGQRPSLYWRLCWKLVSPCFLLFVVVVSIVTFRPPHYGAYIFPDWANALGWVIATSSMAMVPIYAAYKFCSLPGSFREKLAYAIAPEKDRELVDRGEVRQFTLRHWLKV
Record form. Attribute: IC50. Fill in for each entry.
Numbers only, in nM.

Cc1nnc(-c2ccc3c(c2)CN2CCC3(c3ccc(Cl)cc3)CC2)s1    169
Nc1cnc(-c2ccc3c(c2)CN2CCC3(c3ccc(Cl)cc3)CC2)cn1    47.6
FC(F)Oc1ccc(-c2ccc3c(c2)CN2CCC3(c3ccc(Cl)c(Cl)c3)CC2)nn1    26.1
CCS(=O)(=O)N1CCN(c2ccc(C34CCN(CC3)Cc3cc(N5CCN(S(=O)(=O)CC)CC5)ccc34)cc2)CC1    4020

Give measured IC50 for every item shown.
1. FC(F)(F)c1ccc(Oc2ccc3c(c2)CN2CCC3(c3ccc(Cl)c(Cl)c3)CC2)nn1
2. COc1ccc(-c2ccc3c(c2)CN2CCC3(c3ccc(Cl)c(Cl)c3)CC2)nn1
3. O=C1NC2C=CC(c3ccc4c(c3)CN3CCC4(c4ccc(Cl)cc4)CC3)=CC2O1 (centres unmarked)
4. Fc1ccc(C23CCN(CC2)Cc2cc(Oc4ccc(C(F)(F)F)nn4)ccc23)cc1F

result:
[0.7, 5.9, 58.6, 63.2]

---

Record form. Attribute: log10(IC50). Fill in for each entry.
target: hNET (Homo sapiens (Human), UniProt P23975); assay: NET radioligand binding assay ([3H]nisoxetine, HEK-293 membranes); conditions: recombinant HEK-293 membranes, [3H]nisoxetine; read-out: Binding Affinity (IC50, nM) NET
All values: base-10 log of IC50 in nM.

Clc1ccc(C23CCN(CC2)Cc2cc(-c4cnc5ccccc5n4)ccc23)cc1    3.19
CS(=O)(=O)c1ccc(-c2ccc3c(c2)CN2CCC3(c3ccc(Cl)cc3)C2)cc1 (racemic)    2.48
FC(F)(F)c1nnc2ccc(-c3ccc4c(c3)CN3CCC4(c4ccc(Cl)cc4)C3)cn12 (racemic)    1.85

Give measured log10(IC50) for every item shown.
1. Fc1ccc(C23CCN(Cc4cc(-c5ccc6ncnn6c5)ccc42)C3)cc1Cl (single isomer, unassigned) [55(−)]
2. Fc1ccc(C23CCN(Cc4cc(-c5ccc6ncnn6c5)ccc42)C3)cc1Cl (single isomer, unassigned) [55(+)]
3. CCS(=O)(=O)N1CCN(c2ccc(C34CCN(CC3)Cc3cc(N5CCN(S(=O)(=O)CC)CC5)ccc34)cc2)CC1

result:
1: 2.24; 2: 2.98; 3: 3.92

query: Fill blank: measured log10(IC50) of the compound O=c1ccccn1-c1ccc2c(c1)CN1CCC2(c2ccc(Cl)cc2)CC1 is ____.
result: 3.73

---

target: UniProtKB P23975; test: NET radioligand binding assay ([3H]nisoxetine, HEK-293 membranes); conditions: recombinant HEK-293 membranes, [3H]nisoxetine; read-out: Binding Affinity (IC50, nM) NET
Record form. Attribute: IC50. Fill in for each entry.
Give bare numbers, in nM.

Below, each entry is followed by its recorded IC50 result.
Fc1ccc(C23CCN(Cc4cc(-c5ccc(C(F)(F)F)nn5)ccc42)C3)cc1Cl (single isomer, unassigned) [56(−)]    798
O=C1NC2C=CC(c3ccc4c(c3)CN3CCC4(c4ccc(Cl)cc4)CC3)=CC2O1 (centres unmarked)    806
Clc1ccc(C23CCN(CC2)Cc2cc(OCCCc4cccnc4)ccc23)cc1    62.3
Clc1ccc(C23CCN(CC2)Cc2cc(OCCCc4ccncc4)ccc23)cc1    54.8
FC(F)Oc1ccc(-c2ccc3c(c2)CN2CCC3(c3ccc(Cl)cc3)C2)nn1 (single isomer, unassigned) [6(−)]    275
FC(F)(F)c1ccc(-c2ccc3c(c2)CN2CCC3(c3ccc(Cl)cc3)CC2)nn1    384

Give measured IC50 for every item shown.
1. CS(=O)(=O)c1ccc(-c2ccc3c(c2)CN2CCC3(c3ccc(Cl)cc3)CC2)cc1
2. COc1ccc(-c2ccc3c(c2)CN2CCC3(c3ccc(Cl)c(Cl)c3)CC2)nn1
3. Cc1nnc2ccc(-c3ccc4c(c3)CN3CCC4(c4ccc(Cl)cc4)CC3)cn12
4. Fc1ccc(C23CCN(Cc4cc(-c5ccc(C(F)(F)F)nn5)ccc42)C3)cc1Cl (single isomer, unassigned) [56(+)]
5. COc1ccc2c(c1)CN1CCC2(c2ccc(Cl)cc2)CC1
6. Nc1cnc(-c2ccc3c(c2)CN2CCC3(c3ccc(Cl)c(Cl)c3)CC2)cn1

result:
1: 432; 2: 148; 3: 1020; 4: 78.6; 5: 881; 6: 155

Give measured IC50 for every item shown.
1. Oc1ccc2c(c1)CN1CCC2(c2ccc(Cl)cc2)CC1
2. Fc1ccc(C23CCN(CC2)Cc2cc(-c4ccc(C(F)(F)F)nn4)ccc23)cc1Cl
3. O=c1[nH]c2ccc(-c3ccc4c(c3)CN3CCC4(c4ccc(Cl)c(Cl)c4)C3)cc2o1 (single isomer, unassigned) [11(+)]
4. FC(F)(F)c1ccc(Oc2ccc3c(c2)CN2CCC3(c3ccc(Cl)cc3)CC2)nn1
5. FC(F)Oc1ccc(-c2ccc3c(c2)CN2CCC3(c3ccc(Cl)cc3)CC2)nn1
6. Clc1ccc(C23CCN(Cc4cc(-c5ccc6ncnn6c5)ccc42)C3)cc1 (single isomer, unassigned) [3(−)]

result:
1: 691; 2: 345; 3: 369; 4: 124; 5: 264; 6: 443

Give measured IC50 for every item shown.
1. Fc1ccc(C23CCN(CC2)Cc2cc(-c4ccc5ncnn5c4)ccc23)cc1Cl
2. Clc1ccc(C23CCN(Cc4cc(-c5ccc6ncnn6c5)ccc42)C3)cc1 (single isomer, unassigned) [3(+)]

result:
1: 541; 2: 817
